- Tested on: P388
- protocol text: Leukopenia % change in WBC at optimal dose on 3rd day.
- Format: functional, Mus musculus
readout name: Change in WBC
Answer as a quantity: numeral, then unit.

Solved cases below.
COC12[C@@H]3N[C@@H]3CN1C1=C(C(=O)C(N3CCN(C=O)CC3)=C(C)C1=O)[C@@H]2COC(N)=O (stereo not given in full) = 16%
COC12[C@@H]3N[C@@H]3CN1C1=C(C(=O)C(N3CCSC3)=C(C)C1=O)[C@@H]2COC(N)=O (stereo not given in full) = 69%
COC12[C@@H]3N[C@@H]3CN1C1=C(C(=O)C(N3CC3c3ccccc3)=C(C)C1=O)[C@@H]2COC(N)=O (stereo not given in full) = 38%

Input: // lookup Change in WBC for COC12[C@@H]3N[C@@H]3CN1C1=C(C(=O)C(N3CC3C#N)=C(C)C1=O)[C@@H]2COC(N)=O (stereo not given in full)
Output: 2%

Entry source: ChEMBL document CHEMBL1122452
